- Tested on: TK-10 renal
- procedure-summary: NCI tumour cell line growth inhibition, 48 h
quantity-kind: TGI

In the examples that follow, each entry is paired with its recorded TGI.
compound=C=CCn1c(=O)c(C(=O)NC(=O)OCC)cn(C2CCCCC2)c1=O target_of_assay="TK-10 renal" quantity_kind=TGI recorded_measurement="> 100 µM"
compound="CSc1nc(SC)c2c(C)cn(C3OC(C)C(O)C(O)C3O)c2n1 (stereo not drawn)" target_of_assay="TK-10 renal" quantity_kind=TGI recorded_measurement="> 100 µM"
compound=CC(C)(/C=N/O)/[N+]([O-])=C/c1ccccc1 target_of_assay="TK-10 renal" quantity_kind=TGI recorded_measurement="> 100 µM"
compound=O=C1C(=Cc2ccc([N+](=O)[O-])o2)C(=O)N(CCc2ccccc2)S(=O)(=O)N1CCc1ccccc1 target_of_assay="TK-10 renal" quantity_kind=TGI recorded_measurement="> 100 µM"
compound=Nc1nc(-c2ccc3ccccc3c2)cc(-c2cc(-c3ccc4ccccc4c3)nc(N)n2)n1 target_of_assay="TK-10 renal" quantity_kind=TGI recorded_measurement="> 100 µM"
compound=COc1cccc(/C=N/NC(=O)CN(C)C)c1O target_of_assay="TK-10 renal" quantity_kind=TGI recorded_measurement="> 100 µM"
compound=COc1cc2nc3n(c(=O)c2cc1OC)CCCCC3 target_of_assay="TK-10 renal" quantity_kind=TGI recorded_measurement="> 100 µM"
compound="C[C@]12CCC(=O)C=C1CC[C@@H]1C2CC[C@@]2(C)C1CC[C@@H]2OC(=O)C12OC1CCC2=O (stereo partly drawn)" target_of_assay="TK-10 renal" quantity_kind=TGI recorded_measurement="35.9 µM"

Query: // TGI lookup, key: CCOC(=O)Nc1cc(-c2ccc(C)c(NS(C)(=O)=O)c2)nn2c(C)nnc12
Reply: 7.36 µM

Query: // TGI lookup, key: CCN(CC)CCNC(=O)C(Cl)=C1C(Cl)=C(Cl)C(Cl)=C1Cl
Reply: > 100 µM

Query: // TGI lookup, key: O=C(Nc1ccc(Cl)cc1)c1cc2ccccc2cc1OP(=O)(O)O
Reply: 14.1 µM

Query: // TGI lookup, key: CC(=O)N1CCN(CCCCN2c3ccccc3Sc3cc(N=[N+]=[N-])ccc32)CC1
Reply: 31.3 µM

Query: // TGI lookup, key: ClCc1ccc(-c2ccc(Cn3cnc4c(Cl)ncnc43)cc2)cc1
Reply: 3.58 µM

Query: // TGI lookup, key: O=C1C(=O)N(C23CC4CC(CC(C4)C2)C3)C(=S)N1c1ccccc1
Reply: > 100 µM

Query: // TGI lookup, key: COc1cc([C@@H]2c3cc4c(cc3[C@@H](NC(=O)c3ccc(OC(C)=O)cc3)C3COC(=O)[C@@H]32)OCO4)cc(OC)c1O (stereo partly drawn)
Reply: 30.8 µM

Query: // TGI lookup, key: CC(C)OC(=O)c1cccnc1/C=N/O
Reply: > 100 µM

Query: // TGI lookup, key: CCOC(=O)C(NC(=O)c1ccccc1)(Nc1ccc(S(=O)(=O)Nc2ccc(OC)nn2)cc1)C(F)(F)F (stereo not drawn)
Reply: > 100 µM

Query: // TGI lookup, key: CON(C(=O)OC(C)(C)C)c1ccccc1
Reply: > 100 µM

* * *

- System: U251 CNS
Outcome (select one): t (active), f (inactive)

# example entries with known answers
molecule=COc1ccc(Nc2ncccc2C(=O)NCc2cn(Cc3cccc(Oc4ccccc4)c3)nn2)c(OC)c1 target_of_assay="U251 CNS" category=f
molecule=COC1=CC(c2ccc[nH]2)=N/C1=C\c1[nH]c(C)c(C)c1CCC(=O)OCc1ccccc1 target_of_assay="U251 CNS" category=t
molecule=CCCCCCn1c2c(c3c(O)cccc31)C(=O)c1ccccc1-2 target_of_assay="U251 CNS" category=f
molecule=O=C1c2ccccc2-c2ccccc2C1(Cl)Cl target_of_assay="U251 CNS" category=t
molecule=O=C(Nc1ccc(Cl)cc1)c1cc2ccccc2cc1OP(=O)(O)O target_of_assay="U251 CNS" category=f
molecule="O=C(NC(Cc1ccccc1)C(=O)CCl)OCc1ccccc1 (stereo not drawn)" target_of_assay="U251 CNS" category=f
molecule="COc1cc(/C=C2\\CC3C4CCC5=CC(=O)CC[C@]5(C)C4CC[C@]3(C)C2=O)ccc1OCCN1CCCCC1 (stereo partly drawn)" target_of_assay="U251 CNS" category=f

Now examine the next entry.
Query: How did this test come out for O=[N+]([O-])c1cccc([I+]c2ccccc2)c1 ?
Reply: f

* * *

- System: EKVX NSCLC
- procedure-summary: NCI tumour cell line growth inhibition, 48 h
quantity-kind: TGI

In the examples that follow, each entry is paired with its recorded TGI.
compound=CCOC(=O)C1=C(O)c2ccc(OC)cc2C(=O)C1=O recorded_measurement="> 100 µM"
compound="CC1(C)OC2[C@@H](CO[C@@]3([C@H]4OC(C)(C)O[C@@H]4CO)OC(C)(C)O[C@@H]23)O1 (stereo not given in full)" recorded_measurement="> 100 µM"
compound=CCCCc1c2c(nc3c1CCCC3=O)CCCC2 recorded_measurement="> 100 µM"

Query: // TGI lookup, key: NNc1ncnc2cccc(Cl)c12
Reply: 32 µM

Query: // TGI lookup, key: COc1ccc(Oc2nc3c(N)cc(C(F)(F)F)cc3nc2-c2ccccc2)cc1
Reply: 28.9 µM

* * *

Each entry below lists one item and its recorded GI50 value.
- System: NCI-H23 lung
- procedure-summary: NCI tumour cell line growth inhibition, 48 h

In the examples that follow, each entry is paired with its recorded GI50.
compound=O=[N+]([O-])c1cccc([I+]c2ccccc2)c1 quantity_kind=GI50 recorded_measurement="10.9 µM"
compound=Cc1cc2nc3c4cc([N+](=O)[O-])ccc4n(CCN(C)C)c3nc2cc1C quantity_kind=GI50 recorded_measurement="0.501 µM"
compound=COc1cccc(/C=C2\CCc3ccccc3C2=O)c1 quantity_kind=GI50 recorded_measurement="16.3 µM"
compound=O=C1Nc2c(ccc(Cl)c2Cl)/C1=C\c1cc(C(F)(F)F)cc(C(F)(F)F)c1 quantity_kind=GI50 recorded_measurement="4.95 µM"

// next entry
Query: // GI50 lookup, key: C=CCCCC(O)c1ccc(C(O)c2cnc3ccccc3c2)o1 (stereo not given)
Reply: 14.3 µM

* * *

- System: UACC-257 melanoma
- procedure-summary: NCI tumour cell line growth inhibition, 48 h
Each entry below lists one item and its recorded GI50 value.

In the examples that follow, each entry is paired with its recorded GI50.
molecule=COc1cc(OC)c(/C=C/C(=O)c2c(O)cc(OC)c(C3CCN(C)CC3)c2OC)c(OC)c1 quantity_kind=GI50 recorded_measurement="1.46 µM"
molecule=CS(=O)(=O)c1ccc(-c2cnc(NCc3ccco3)n3cnnc23)cc1 quantity_kind=GI50 recorded_measurement="24.7 µM"

Query: // GI50 lookup, key: Nc1nc(Cl)nc2c1ncn2C1OC(CO)C(O)C1O (centres undefined)
Reply: > 100 µM

Query: // GI50 lookup, key: CC/C(=C(/CC)c1ccc(O)cc1)c1ccc(O)cc1
Reply: 7.04 µM

* * *

Each entry below lists one item and its recorded GI50 value.
- Tested on: SNB-19 CNS
- procedure-summary: NCI tumour cell line growth inhibition, 48 h

In the examples that follow, each entry is paired with its recorded GI50.
smiles_text=COc1cc(O)c2c(=O)c(OC)c(-c3ccc(OC)c(OC)c3)oc2c1.[Sn] target_of_assay="SNB-19 CNS" recorded_measurement="> 100 µM"
smiles_text=COc1cccc(/C=C2\CCc3ccccc3C2=O)c1 target_of_assay="SNB-19 CNS" recorded_measurement="12.4 µM"

Query: // GI50 lookup, key: CCOC(=O)Nc1cc(-c2ccc(C)c(NS(C)(=O)=O)c2)nn2c(C)nnc12
Reply: 0.799 µM

* * *

- Test system: M19-MEL melanoma
- procedure-summary: NCI tumour cell line growth inhibition, 48 h
quantity-kind: TGI (µM)
# unit: µM | format: bare number

In the examples that follow, each entry is paired with its recorded TGI.
compound="C[C@]12CCC(=O)C=C1CC[C@@H]1C2CC[C@@]2(C)C1CC[C@@H]2OC(=O)C12OC1CCC2=O (some centres undefined)" target_of_assay="M19-MEL melanoma" quantity_kind=TGI recorded_measurement=30.3
compound="O=C(NC(Cc1ccccc1)C(=O)CCl)OCc1ccccc1 (centres undefined)" target_of_assay="M19-MEL melanoma" quantity_kind=TGI recorded_measurement=27.3
compound=Cc1cc(Cl)ccc1Nc1nc2c(s1)C(=O)c1ccccc1C2=O target_of_assay="M19-MEL melanoma" quantity_kind=TGI recorded_measurement=2.06

// next entry
Query: // TGI lookup, key: O=C(CC1(O)C(=O)Nc2ccc([N+](=O)[O-])cc21)c1ccc(Br)cc1 (centres undefined)
Reply: 69

* * *

- Test system: T-47D breast
- procedure-summary: NCI tumour cell line growth inhibition, 48 h
quantity-kind: GI50

smiles_text=Cn1cc(-c2ccc3nnc(C(F)(F)c4ccc5ncccc5c4)n3n2)cn1 recorded_measurement="40.8 µM"
smiles_text=COc1ccc2c(c1)C(=O)c1c-2c(OCCN2CCCCC2)nc2ccc(OC)cc12 recorded_measurement="3.44 µM"

Query: // GI50 lookup, key: COC1=CC(c2ccc[nH]2)=N/C1=C\c1[nH]c(C)c(C)c1CCC(=O)OCc1ccccc1
Reply: 0.227 µM

Values compiled from PubChem BioAssay (NCI).
